All values here come from patent US20050266509A1.

Record form. Attribute: IC50. Fill in for each entry.
Molecular target: PTPMEG (Homo sapiens)
Construct: Asp-Ser-6xHis (N); made in house; host or cells: E. coli BL21(DE3)
Sequence (P29074 655-911 limits assumed): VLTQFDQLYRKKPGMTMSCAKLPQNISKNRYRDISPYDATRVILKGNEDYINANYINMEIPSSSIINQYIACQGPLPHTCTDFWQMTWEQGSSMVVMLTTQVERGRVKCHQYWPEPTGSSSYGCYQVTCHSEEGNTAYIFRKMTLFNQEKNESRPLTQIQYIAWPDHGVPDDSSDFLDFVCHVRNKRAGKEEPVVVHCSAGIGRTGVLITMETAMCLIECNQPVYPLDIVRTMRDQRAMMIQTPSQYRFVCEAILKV
Test: TR-FRET phosphatase activity assay, PTPMEG
Format: biochemical
Express it in nM; write the number only.

Find the measured IC50 of "O=C(O)CN1C(=O)c2cccc3cccc1c23" and report it. 560

Find the measured IC50 of "CCOC(=O)C(=CC1=C/C(=C/N(C)C)C(=O)O1)C(=O)OCC" and report it. 320

###

Target: YOP51 (Yersinia enterocolitica, UniProt P15273)
Sequence (P15273 whole entry): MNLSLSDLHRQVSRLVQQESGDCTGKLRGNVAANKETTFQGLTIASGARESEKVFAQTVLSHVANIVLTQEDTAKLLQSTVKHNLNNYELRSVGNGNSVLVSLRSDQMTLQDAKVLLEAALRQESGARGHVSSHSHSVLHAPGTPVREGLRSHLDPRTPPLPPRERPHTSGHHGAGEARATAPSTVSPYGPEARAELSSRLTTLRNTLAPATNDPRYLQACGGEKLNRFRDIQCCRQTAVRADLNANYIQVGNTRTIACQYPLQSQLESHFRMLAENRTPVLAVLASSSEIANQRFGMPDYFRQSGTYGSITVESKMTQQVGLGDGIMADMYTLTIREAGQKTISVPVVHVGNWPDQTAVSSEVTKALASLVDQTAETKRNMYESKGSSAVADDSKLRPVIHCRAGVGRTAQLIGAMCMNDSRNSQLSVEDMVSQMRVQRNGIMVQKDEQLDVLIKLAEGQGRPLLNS
quantity_measured: pIC50
Friendly reminder that pIC50 comes from taking -log10 of the concentration in mol/L.

Find the measured pIC50 of "CCOC(=O)C(=CC1=C/C(=C/N(C)C)C(=O)O1)C(=O)OCC" and report it. 5.38

###

Molecular target: CD45 (Homo sapiens, UniProt P08575)
Sequence (P08575 26-1306): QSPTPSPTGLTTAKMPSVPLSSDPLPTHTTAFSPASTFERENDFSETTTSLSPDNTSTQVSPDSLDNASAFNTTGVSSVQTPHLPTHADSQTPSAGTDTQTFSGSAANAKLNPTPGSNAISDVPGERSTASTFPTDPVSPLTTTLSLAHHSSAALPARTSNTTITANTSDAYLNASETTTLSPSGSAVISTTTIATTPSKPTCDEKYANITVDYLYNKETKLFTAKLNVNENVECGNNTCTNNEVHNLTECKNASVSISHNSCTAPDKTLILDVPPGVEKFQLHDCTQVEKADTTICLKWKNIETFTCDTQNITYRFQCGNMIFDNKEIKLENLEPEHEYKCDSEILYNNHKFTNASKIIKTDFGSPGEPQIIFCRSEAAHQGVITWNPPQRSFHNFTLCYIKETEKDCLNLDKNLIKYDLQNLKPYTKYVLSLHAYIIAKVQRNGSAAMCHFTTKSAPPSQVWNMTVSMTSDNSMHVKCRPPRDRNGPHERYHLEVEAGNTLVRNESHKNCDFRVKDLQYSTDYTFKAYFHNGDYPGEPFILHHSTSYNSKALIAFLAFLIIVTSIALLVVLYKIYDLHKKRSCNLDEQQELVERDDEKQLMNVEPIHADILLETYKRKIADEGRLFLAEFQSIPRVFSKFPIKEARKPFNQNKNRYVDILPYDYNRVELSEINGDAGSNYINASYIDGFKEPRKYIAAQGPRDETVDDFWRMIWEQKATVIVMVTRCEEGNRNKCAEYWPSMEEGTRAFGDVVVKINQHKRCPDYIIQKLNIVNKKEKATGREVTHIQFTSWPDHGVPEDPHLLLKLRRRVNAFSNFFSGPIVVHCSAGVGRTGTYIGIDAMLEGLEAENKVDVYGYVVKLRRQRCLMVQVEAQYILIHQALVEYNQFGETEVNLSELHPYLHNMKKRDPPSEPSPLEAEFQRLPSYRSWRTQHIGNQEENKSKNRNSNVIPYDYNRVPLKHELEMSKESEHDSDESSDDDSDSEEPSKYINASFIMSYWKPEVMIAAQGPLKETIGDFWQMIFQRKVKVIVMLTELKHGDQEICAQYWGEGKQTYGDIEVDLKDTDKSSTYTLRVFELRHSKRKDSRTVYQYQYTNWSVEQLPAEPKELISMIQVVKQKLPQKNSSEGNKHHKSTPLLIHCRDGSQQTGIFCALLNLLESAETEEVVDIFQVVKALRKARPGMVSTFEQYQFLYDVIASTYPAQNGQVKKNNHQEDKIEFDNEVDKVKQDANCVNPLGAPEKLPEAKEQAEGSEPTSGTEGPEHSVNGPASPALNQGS
quantity_measured: pIC50
Friendly reminder that pIC50 comes from taking -log10 of the concentration in mol/L.

Find the measured pIC50 of CCOC(=O)C(=CC1=C/C(=C/N(C)C)C(=O)O1)C(=O)OCC [AGY- 0046293] and report it. 4.05
